In what follows, each item is paired with its pIC50 for EGFR WT (Homo sapiens (Human), UniProt P00533).
Would you please state pIC50, meaning minus log10 of the concentration in mol/L, as a bare number?

Answered examples (2):
compound="Cc1ncsc1-c1ccc([C@H](C)NC(=O)[C@@H]2C[C@@H](O)CN2C(=O)[C@@H](NC(=O)COCCOCCOCCc2ccc(OC3CCN(c4nccc(Nc5cc6c(cn5)nc(C)n6C(C)C)n4)CC3)cc2)C(C)(C)C)cc1 [Example 291]" obs_value=4.85
compound="CC(C)n1c(COCCN2CCN(c3ccc(OCCCN4CCN(c5ccc6c(c5)C(=O)N(C5CCC(=O)NC5=O)C6=O)CC4)cc3)CC2)nc2cnc(Nc3ccnc(-c4cnn(S(=O)(=O)C5CC5)c4)n3)cc21 (centres unmarked) [compound 305]" obs_value=5.68

Shifting focus to the compound that follows.
-- ask Notebook: pull reported pIC50 for EGFR WT (Homo sapiens (Human), UniProt P00533), entry Cc1ncsc1-c1ccc([C@H](C)NC(=O)[C@@H]2C[C@@H](O)CN2C(=O)[C@@H](NC(=O)COCCN2CCN(CCOCCOCCOCC#Cc3cccc4c3C(=O)N(C(C(=O)Nc3nccs3)c3cc(F)ccc3O)C4)CC2)C(C)(C)C)cc1 (some centres unmarked) [compound 311]
-- reply 7.01
